Hey, just so you know, these numbers are from patent US20130273029A1.

- subject-of-test: Human HER3, endogenous, on human cancer cell lines (SK-Br-3, MCF7, BT-474) (human, UniProt P21860 20-1342)
- Sequence (P21860 20-1342): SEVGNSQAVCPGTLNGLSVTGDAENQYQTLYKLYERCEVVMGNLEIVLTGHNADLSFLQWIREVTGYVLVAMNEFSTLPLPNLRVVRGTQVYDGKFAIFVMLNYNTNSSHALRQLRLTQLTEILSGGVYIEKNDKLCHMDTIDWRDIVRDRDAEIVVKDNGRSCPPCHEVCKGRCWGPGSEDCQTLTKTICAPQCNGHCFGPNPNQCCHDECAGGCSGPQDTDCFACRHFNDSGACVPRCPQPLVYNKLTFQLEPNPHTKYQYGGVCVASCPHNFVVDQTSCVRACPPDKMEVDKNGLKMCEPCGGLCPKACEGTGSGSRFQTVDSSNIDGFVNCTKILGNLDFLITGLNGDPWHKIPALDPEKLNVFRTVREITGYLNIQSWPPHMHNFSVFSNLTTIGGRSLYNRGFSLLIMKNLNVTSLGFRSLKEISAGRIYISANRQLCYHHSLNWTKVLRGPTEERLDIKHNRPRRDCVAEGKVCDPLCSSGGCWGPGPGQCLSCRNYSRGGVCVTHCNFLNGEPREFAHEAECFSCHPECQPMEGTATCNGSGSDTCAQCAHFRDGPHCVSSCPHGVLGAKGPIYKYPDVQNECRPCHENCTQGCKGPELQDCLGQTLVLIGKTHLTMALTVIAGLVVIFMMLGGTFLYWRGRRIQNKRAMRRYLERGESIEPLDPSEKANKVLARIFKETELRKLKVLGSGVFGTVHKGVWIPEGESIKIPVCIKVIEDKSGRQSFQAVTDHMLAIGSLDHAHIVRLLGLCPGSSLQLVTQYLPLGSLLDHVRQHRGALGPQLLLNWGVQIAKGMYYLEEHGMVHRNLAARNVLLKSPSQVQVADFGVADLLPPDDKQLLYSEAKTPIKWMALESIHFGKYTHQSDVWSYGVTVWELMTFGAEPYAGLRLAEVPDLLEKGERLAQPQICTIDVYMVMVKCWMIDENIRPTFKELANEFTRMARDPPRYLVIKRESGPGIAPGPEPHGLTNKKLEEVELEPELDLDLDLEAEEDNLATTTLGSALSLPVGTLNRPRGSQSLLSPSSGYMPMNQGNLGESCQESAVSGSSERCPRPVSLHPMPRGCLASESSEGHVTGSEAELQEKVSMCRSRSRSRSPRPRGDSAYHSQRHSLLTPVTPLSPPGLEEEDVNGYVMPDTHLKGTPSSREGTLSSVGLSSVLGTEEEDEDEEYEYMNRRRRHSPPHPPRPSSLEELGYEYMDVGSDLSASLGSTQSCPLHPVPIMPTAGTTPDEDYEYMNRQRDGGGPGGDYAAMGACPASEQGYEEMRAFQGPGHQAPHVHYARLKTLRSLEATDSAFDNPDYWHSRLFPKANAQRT
- assay-text: cell-based or functional assay
measured-endpoint: SK-Br-3 proliferation % inhibition (%)
Express the result in % but write the number alone.

Some solved entries appear below for comparison.
MOR13762 (antibody, human IgG1, kappa, V domains shown, tested as IgG) VH: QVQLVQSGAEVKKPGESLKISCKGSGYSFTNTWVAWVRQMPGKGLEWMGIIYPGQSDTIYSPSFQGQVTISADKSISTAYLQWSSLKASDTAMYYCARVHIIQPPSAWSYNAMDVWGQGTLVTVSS VL: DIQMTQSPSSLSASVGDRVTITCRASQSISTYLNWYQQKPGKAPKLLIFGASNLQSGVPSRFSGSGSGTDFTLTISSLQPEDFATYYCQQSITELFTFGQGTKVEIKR; 45
MOR13763 (antibody, human IgG1, kappa, V domains shown, tested as IgG) VH: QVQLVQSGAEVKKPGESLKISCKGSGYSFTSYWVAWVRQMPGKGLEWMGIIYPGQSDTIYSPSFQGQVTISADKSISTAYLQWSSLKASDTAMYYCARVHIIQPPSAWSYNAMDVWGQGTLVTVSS VL: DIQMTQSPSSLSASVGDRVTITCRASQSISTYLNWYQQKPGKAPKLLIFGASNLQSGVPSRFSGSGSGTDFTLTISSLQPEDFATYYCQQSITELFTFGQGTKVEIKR; 49

Given the binder MOR13768 (antibody, human IgG1, kappa, V domains shown, tested as IgG) VH: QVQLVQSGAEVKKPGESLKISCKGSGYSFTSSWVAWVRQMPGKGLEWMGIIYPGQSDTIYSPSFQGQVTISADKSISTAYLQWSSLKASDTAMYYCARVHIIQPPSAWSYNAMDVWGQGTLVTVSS VL: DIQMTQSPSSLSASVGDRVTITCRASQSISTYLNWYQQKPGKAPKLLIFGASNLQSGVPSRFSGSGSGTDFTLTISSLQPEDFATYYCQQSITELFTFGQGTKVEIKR , what is its reported SK-Br-3 proliferation % inhibition?
43
